Tested on: 931267-113-T-J1-PDC KRAS spheroid with HUVEC/MSC, viability;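 further: compound exposure lasted 7 days before the readout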
Experiment: Anticancer human tumor 931267-113-T-J1-PDC patient-derived colon adenocarcinoma cell line growth inhibition [KRAS2]; active means viability on the fitted dose curve at most 10% of control; inactive means the rest
Conditions: second compound 3.16 µM; first compound 0.0316 µM
Labels: T for active, F for inactive

# compound, class-assignment
records = [
    ("CC1OCC2(CCN(c3cnc(Sc4ccnc(N)c4Cl)c(N)n3)CC2)C1N (stereo not given) + CNCc1ccccc1-c1csc(C(C)Nc2nc(C)nc3cc(OC)c(OC)cc23)c1", "T"),
    ("COc1cc(Nc2ncc3c(n2)-c2ccc(Cl)cc2C(c2c(F)cccc2OC)=NC3)ccc1C(=O)O + COc1cc2nc(C)nc(NC(C)c3cc(N)cc(C(F)(F)F)c3)c2cc1OC1CCOC1", "F"),
    ("COC(=O)c1ccc2c(C(=Nc3ccc(N(C)C(=O)CN4CCN(C)CC4)cc3)c3ccccc3)c(O)[nH]c2c1 + COc1cc2nc(C)nc(NC(C)c3cc(N)cc(C(F)(F)F)c3)c2cc1OC1CCOC1", "F"),
    ("CN(C)C/C=C/C(=O)Nc1cc2c(Nc3ccc(F)c(Cl)c3)ncnc2cc1O[C@H]1CCOC1 + CC1OCC2(CCN(c3cnc(Sc4ccnc(N)c4Cl)c(N)n3)CC2)C1N", "F"),
    ("CC(=O)OC12COC1CC(O)C1(C)C(=O)C(O)C3=C(C)C(OC(=O)C(O)C(NC(=O)OC(C)(C)C)c4ccccc4)CC(O)(C(OC(=O)c4ccccc4)C21)C3(C)C (stereo not given) + CNCc1ccccc1-c1csc(C(C)Nc2nc(C)nc3cc(OC)c(OC)cc23)c1", "F"),
]
